These data points were gathered from patent US20220177587A1.

# target: human CTLA-4 (human) (UniProt P16410)
# Sequence (P16410 36-223): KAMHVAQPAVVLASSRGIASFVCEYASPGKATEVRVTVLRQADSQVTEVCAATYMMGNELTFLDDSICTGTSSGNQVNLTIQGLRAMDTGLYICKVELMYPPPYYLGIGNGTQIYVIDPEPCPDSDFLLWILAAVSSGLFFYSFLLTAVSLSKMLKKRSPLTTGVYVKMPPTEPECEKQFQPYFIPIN
# protocolDetails: flow cytometry, Expi293F cells transfected with CTLA-4
A collection of binders and their measured parental ratio
// no unit string in output, number only

binder: CD80 R29V/M43Q/E81R/L85I/K89R/D90L/A91E/F92N/K93Q/R94G ECD-Fc (Fc fusion) VIHVTKEVKEVATLSCGHNVSVEELAQTVIYWQKEKKMVLTMQSGDMNIWPEYKNRTIFDITNNLSIVILALRPSDEGTYRCVVIKYERLENQGEHLAEVTLSVKADFPTPSISDFEIPTSNIRRIICSTSGGFPEPHLSWLENGEELNAINTTVSQDPETELYAVSSKLDFNMTTNHSFMCLIKYGHLRVNQTFNWNTTKQEHFPDN
parental ratio: 0.02

binder: CD80 A12V/S15F/Y31H/M38L/T41G/M43L/D90N/T130A/P137L/N149D/N152T ECD-Fc (Fc fusion) VIHVTKEVKEVVTLFCGHNVSVEELAQTRIHWQKEKKLVLGMLSGDMNIWPEYKNRTIFDITNNLSIVILALRPSDEGTYECVVLKYEKNAFKREHLAEVTLSVKADFPTPSISDFEIPTSNIRRIICSASGGFPELHLSWLENGEELDAITTTVSQDPETELYAVSSKLDFNMTTNHSFMCLIKYGHLRVNQTFNWNTTKQEHFPDN
parental ratio: 0.03

binder: CD80 K36G/K37Q/M38I/L40M ECD-Fc (Fc fusion) VIHVTKEVKEVATLSCGHNVSVEELAQTRIYWQKEGQIVMTMMSGDMNIWPEYKNRTIFDITNNLSIVILALRPSDEGTYECVVLKYEKDAFKREHLAEVTLSVKADFPTPSISDFEIPTSNIRRIICSTSGGFPEPHLSWLENGEELNAINTTVSQDPETELYAVSSKLDFNMTTNHSFMCLIKYGHLRVNQTFNWNTTKQEHFPDN
parental ratio: 0.03

binder: CD80 A91G/L102S ECD-Fc (Fc fusion) VIHVTKEVKEVATLSCGHNVSVEELAQTRIYWQKEKKMVLTMMSGDMNIWPEYKNRTIFDITNNLSIVILALRPSDEGTYECVVLKYEKDGFKREHLAEVTSSVKADFPTPSISDFEIPTSNIRRIICSTSGGFPEPHLSWLENGEELNAINTTVSQDPETELYAVSSKLDFNMTTNHSFMCLIKYGHLRVNQTFNWNTTKQEHFPDN
parental ratio: 0.03

binder: CD80 L70Q/A91G/T110A/I118V/T120S/T130A ECD-Fc (Fc fusion) VIHVTKEVKEVATLSCGHNVSVEELAQTRIYWQKEKKMVLTMMSGDMNIWPEYKNRTIFDITNNLSIVIQALRPSDEGTYECVVLKYEKDGFKREHLAEVTLSVKADFPAPSISDFEVPSSNIRRIICSASGGFPEPHLSWLENGEELNAINTTVSQDPETELYAVSSKLDFNMTTNHSFMCLIKYGHLRVNQTFNWNTTKQEHFPDN
parental ratio: 0.07

Asked: What value of parental ratio has been reported for the following binder? CD80 K37E/F59S/L70Q/A91G/T120S/T130A ECD-Fc (SEQ ID NO 1397) (Fc fusion) VIHVTKEVKEVATLSCGHNVSVEELAQTRIYWQKEKEMVLTMMSGDMNIWPEYKNRTISDITNNLSIVIQALRPSDEGTYECVVLKYEKDGFKREHLAEVTLSVKADFPTPSISDFEVPSSNIRRIICSASGGFPEPHLSWLENGEELNAINTTVSQDPETELYAVSSKLDFNMTTNHSFMCLIEYGHLRVNQTFNWNTTKQEHFPDN
Given back: 0.36
